# tgt: V600E full-length B-Raf (Homo sapiens, UniProt P15056, V600E)
# Construct: made in house; host or cells: Sf9 insect cells (baculovirus)
# Sequence (P15056 whole entry V600E): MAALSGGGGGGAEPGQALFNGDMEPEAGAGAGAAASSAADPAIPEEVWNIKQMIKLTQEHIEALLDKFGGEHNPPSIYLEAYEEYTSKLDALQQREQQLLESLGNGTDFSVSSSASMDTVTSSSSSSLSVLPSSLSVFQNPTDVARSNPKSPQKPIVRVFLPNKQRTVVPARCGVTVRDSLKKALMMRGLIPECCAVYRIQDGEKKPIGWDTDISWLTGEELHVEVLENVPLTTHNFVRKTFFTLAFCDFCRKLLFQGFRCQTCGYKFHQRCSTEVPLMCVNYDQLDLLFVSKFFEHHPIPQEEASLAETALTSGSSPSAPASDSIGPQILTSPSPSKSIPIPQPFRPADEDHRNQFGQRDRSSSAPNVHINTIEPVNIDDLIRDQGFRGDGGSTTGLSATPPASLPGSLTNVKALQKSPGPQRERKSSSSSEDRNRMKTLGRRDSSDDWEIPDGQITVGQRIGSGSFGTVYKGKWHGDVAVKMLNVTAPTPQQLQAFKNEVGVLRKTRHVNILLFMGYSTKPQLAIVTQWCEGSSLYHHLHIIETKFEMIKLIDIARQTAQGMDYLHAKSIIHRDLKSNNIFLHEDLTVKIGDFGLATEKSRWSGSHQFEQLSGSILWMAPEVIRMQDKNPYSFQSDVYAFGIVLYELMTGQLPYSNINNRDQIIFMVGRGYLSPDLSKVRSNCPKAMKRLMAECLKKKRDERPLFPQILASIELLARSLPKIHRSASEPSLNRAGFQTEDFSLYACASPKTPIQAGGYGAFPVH
# measurement_notes: B-Raf IC50 assay: incorporation of radio labeled phosphate from [γ-33P]ATP into FSBA-modified wild-type MEK
# Format: biochemical
# test_parameters: bound stated
Catalogue of IC50 readings, one per entry.

molecule | result
COc1n[nH]c2ncc(NC(=O)c3c(F)cc(F)c(OCc4ccccc4)c3F)cc12 [Example 32] | < 0.1 µM

Input line: Form field: reported IC50 of O=C(Nc1cnc2[nH]nc(C(F)(F)F)c2c1)c1c(Cl)ccc(OCc2ccccc2)c1F [Example 8]
Output line: < 0.1 µM

Input line: Same question for COc1n[nH]c2ncc(NC(=O)c3c(Cl)ccc(OCc4ccc(Br)cc4)c3F)cc12 [Example 48] please.
Output line: < 0.1 µM

====

# tgt: V600E full-length B-Raf (Homo sapiens, UniProt P15056, V600E)
# Construct: made in house; host or cells: Sf9 insect cells (baculovirus)
# measurement_notes: B-Raf IC50 assay: incorporation of radio labeled phosphate from [γ-33P]ATP into FSBA-modified wild-type MEK
# Type: biochemical
# test_parameters: 4 μM ATP, 60-minute incubation, representative data of multiple tests
measurement_name: IC50 (nM)

compound | tgt | measurement_name | number
COc1n[nH]c2ncc(NC(=O)c3c(Cl)ccc(OCc4ccccc4Cl)c3F)cc12 [Example 60] | V600E full-length B-Raf (Homo sapiens, UniProt P15056, V600E) | IC50 | 1.28

[I] COc1n[nH]c2ncc(NC(=O)c3cccc(OCc4ccccc4)c3Cl)cc12 [Example 21]
[II] CCOc1n[nH]c2ncc(NC(=O)c3c(Cl)ccc(OCc4ccccc4)c3F)cc12 [Example 14]
[III] COc1n[nH]c2ncc(NC(=O)c3c(C)ccc(OCc4ccc(Cl)cn4)c3F)cc12 [Example 74]
Input line: Could you please sort these 3 entries by IC50 from high to low? Give me the labels in the order the question wants.
Output line: I, II, III
(I: 72.4 nM, II: 0.93 nM, III: 0.51 nM)

====

# tgt: V600E full-length B-Raf (Homo sapiens, UniProt P15056, V600E)
# Construct: made in house; host or cells: Sf9 insect cells (baculovirus)
# measurement_notes: B-Raf IC50 assay: incorporation of radio labeled phosphate from [γ-33P]ATP into FSBA-modified wild-type MEK
# Assay type: biochemical
# test_parameters: 4 μM ATP, 60-minute incubation, representative data of multiple tests
measurement_name: IC50 (nM)

[a] COc1n[nH]c2ncc(NC(=O)c3cc(OCc4ccccn4)ccc3Cl)cc12
[b] O=C(Nc1cnc2[nH]nc(OCCF)c2c1)c1c(Cl)ccc(OCc2ccccc2)c1F
[c] COc1n[nH]c2ncc(NC(=O)c3c(Cl)ccc(OCc4ccncn4)c3F)cc12
[d] COc1n[nH]c2ncc(NC(=O)c3c(Cl)ccc(OCc4ccc5ncccc5c4)c3F)cc12
[e] CNc1n[nH]c2ncc(NC(=O)c3c(Cl)ccc(OCc4ccccc4)c3F)cc12
Input line: Sort entries by IC50 from minimum to maximum value. Order the labels as requested and list them.
Output line: b, d, e, c, a
(b: 0.82 nM, d: 1.66 nM, e: 7.03 nM, c: 27 nM, a: 64.9 nM)

[a] O=C(Nc1cnc2[nH]nc(C3CC3)c2c1)c1c(Cl)ccc(OCc2ccccc2)c1F
[b] COc1n[nH]c2ncc(NC(=O)c3c(Cl)ccc(OCc4cscn4)c3F)cc12
Input line: Given a and given b , which shows the smaller recorded IC50? Respond with the label that goes with your answer.
Output line: a

====

# tgt: V600E full-length B-Raf (Homo sapiens, UniProt P15056, V600E)
# Construct: made in house; host or cells: Sf9 insect cells (baculovirus)
# measurement_notes: B-Raf IC50 assay: incorporation of radio labeled phosphate from [γ-33P]ATP into FSBA-modified wild-type MEK
# Assay type: biochemical
# test_parameters: 4 μM ATP, 60-minute incubation, representative data of multiple tests
measurement_name: IC50 (nM)

smi | measurement_name | number
COc1n[nH]c2ncc(NC(=O)c3c(Cl)ccc(OCc4ccccc4)c3Cl)cc12 | IC50 | 12.3
COc1n[nH]c2ncc(NC(=O)c3c(Cl)ccc(OCc4cccc(F)c4)c3F)cc12 | IC50 | 0.84
COc1n[nH]c2ncc(NC(=O)c3c(Cl)ccc(OCc4cnccn4)c3F)cc12 | IC50 | 26
COc1n[nH]c2ncc(NC(=O)c3c(Cl)ccc(OCc4ncccn4)c3F)cc12 | IC50 | 152
CC(C)Oc1n[nH]c2ncc(NC(=O)c3c(Cl)ccc(OCc4ccccc4)c3F)cc12 | IC50 | 1.71

[a] COc1ccc(COc2ccc(Cl)c(C(=O)Nc3cnc4[nH]nc(OC)c4c3)c2F)cc1
[b] COc1n[nH]c2ncc(NC(=O)c3c(Cl)ccc(OCc4ccccc4)c3F)cc12
[c] COc1n[nH]c2ncc(NC(=O)c3cccc(OCc4ccccc4)c3C)cc12
[d] COc1n[nH]c2ncc(NC(=O)c3c(Cl)ccc(OCc4ccc(C(F)(F)F)nc4)c3F)cc12
Input line: Order each entry by recorded IC50, climbing from the minimum. // rank by listing labels in the order requested
Output line: b, a, d, c
(b: 0.62 nM, a: 1.31 nM, d: 2.63 nM, c: 585 nM)

====

IC50 values, listed per item
# tgt: V600E full-length B-Raf (Homo sapiens, UniProt P15056, V600E)
# Construct: made in house; host or cells: Sf9 insect cells (baculovirus)
# measurement_notes: B-Raf IC50 assay: incorporation of radio labeled phosphate from [γ-33P]ATP into FSBA-modified wild-type MEK
# Type: biochemical
# test_parameters: bound stated

Solved entries (count: 3):
smi | IC50
COc1n[nH]c2ncc(NC(=O)c3c(C)ccc(OCc4ccc(Cl)cc4)c3F)cc12 | < 100 nM
COc1n[nH]c2ncc(NC(=O)c3c(Cl)ccc(OCc4ccco4)c3F)cc12 | < 100 nM
COc1n[nH]c2ncc(NC(=O)c3c(Cl)ccc(OCc4ccc(Cl)cc4F)c3F)cc12 | < 100 nM

Continue with the next compound.
Input line: Item `COc1ccc(COc2ccc(Cl)c(C(=O)Nc3cnc4[nH]nc(OC)c4c3)c2F)cc1` has what recorded IC50?
Output line: < 100 nM

====

# tgt: V600E full-length B-Raf (Homo sapiens, UniProt P15056, V600E)
# Construct: made in house; host or cells: Sf9 insect cells (baculovirus)
# measurement_notes: B-Raf IC50 assay: incorporation of radio labeled phosphate from [γ-33P]ATP into FSBA-modified wild-type MEK
# Assay type: biochemical
# test_parameters: 4 μM ATP, 60-minute incubation, representative data of multiple tests
pIC50: −log10 of the molar value.
measurement_name: pIC50

molecule | pIC50
COc1n[nH]c2ncc(NC(=O)c3c(Cl)ccc(OCc4csc(C)n4)c3F)cc12 | 7.98
COc1n[nH]c2ncc(NC(=O)c3c(Cl)ccc(OCc4ccco4)c3F)cc12 | 8.47
COc1n[nH]c2ncc(NC(=O)c3c(Cl)ccc(OCc4ccc5c(c4)CCO5)c3F)cc12 | 9.20
CC1(c2n[nH]c3ncc(NC(=O)c4c(Cl)ccc(OCc5ccccc5)c4F)cc23)CC1 | 8.46

[A] COc1n[nH]c2ncc(NC(=O)c3c(F)ccc(OCc4ccccc4)c3Cl)cc12
[B] COCCOc1n[nH]c2ncc(NC(=O)c3c(Cl)ccc(OCc4ccccc4)c3F)cc12
Input line: Parameter metric = pIC50. Return the lower-valued option from A and B . Kindly give the label for the entry you pick.
Output line: A

[a] COc1n[nH]c2ncc(NC(=O)c3c(Cl)ccc(OCc4nccs4)c3F)cc12
[b] CSc1n[nH]c2ncc(NC(=O)c3c(Cl)ccc(OCc4ccccc4)c3F)cc12
Input line: Short answer wanted: higher pIC50, a or b ? Answer with the label corresponding to your selection.
Output line: b
(b: 8.73, a: 7.88)

[A] COc1n[nH]c2ncc(NC(=O)c3cccc(OCc4ccccc4)c3)cc12
[B] COc1n[nH]c2ncc(NC(=O)c3c(Cl)ccc(OCc4scnc4C)c3F)cc12
Input line: // max by pIC50 over [ A , B ] Pick one; state its label.
Output line: B

[1] CC(=O)Nc1n[nH]c2ncc(NC(=O)c3c(Cl)ccc(OCc4ccccc4)c3F)cc12
[2] CN(C)CCOc1n[nH]c2ncc(NC(=O)c3c(Cl)ccc(OCc4ccccc4)c3F)cc12
[3] COc1n[nH]c2ncc(NC(=O)c3c(C)ccc(OCc4ccc(Cl)cc4)c3F)cc12
[4] COc1n[nH]c2ncc(NC(=O)c3c(Cl)ccc(OCc4ccc(C)cn4)c3F)cc12
Input line: Order by pIC50, ascending. Use the labels to give the requested order.
Output line: 2, 1, 4, 3

====

# tgt: V600E full-length B-Raf (Homo sapiens, UniProt P15056, V600E)
# Construct: made in house; host or cells: Sf9 insect cells (baculovirus)
# measurement_notes: B-Raf IC50 assay: incorporation of radio labeled phosphate from [γ-33P]ATP into FSBA-modified wild-type MEK
# Format: biochemical
# test_parameters: 4 μM ATP, 60-minute incubation, representative data of multiple tests
pIC50: −log10 of the molar value.
measurement_name: pIC50

[a] COc1n[nH]c2ncc(NC(=O)c3c(Cl)ccc(OCc4cccc(Cl)c4)c3F)cc12
[b] COc1n[nH]c2ncc(NC(=O)c3c(Cl)ccc(OCc4ccc(C#N)cc4)c3F)cc12
[c] COc1n[nH]c2ncc(NC(=O)c3c(Cl)ccc(OCc4cccnc4)c3F)cc12
Input line: Rank the 3 compounds shown above by pIC50, smallest number first. Field: ranking. Enter the labels in the order requested.
Output line: c, b, a
(c: 7.43, b: 8.70, a: 8.91)
